Attribution: ChEMBL document CHEMBL1201862

tested on: HCT-116; test: NCI tumour cell line growth inhibition, 48 h
The source made the active and inactive calls. Rule as the data show it: active = GI50 up to about 1.1 µM and inactive = higher.
Recorded endpoint: GI50

{"Compound": "CNC(=S)/N=C(\\N)N(C)C", "Measurement target": "HCT-116", "Observed measurement": "> 100 µM (inactive)"}
{"Compound": "O=C(O)c1ccc2c(c1)Cc1cc([N+](=O)[O-])ccc1-2", "Measurement target": "HCT-116", "Observed measurement": "> 100 µM (inactive)"}
{"Compound": "CCCCCCCCCCCCOC(=S)NCCCC", "Measurement target": "HCT-116", "Observed measurement": "18.6 µM (inactive)"}
{"Compound": "O=C(CSc1nc2nncc-2c(O)[nH]1)c1ccc(Cl)cc1", "Measurement target": "HCT-116", "Observed measurement": "> 100 µM (inactive)"}
{"Compound": "O=[N+]([O-])C(/C(Cl)=C(\\Cl)Br)=C(/Cl)SCc1ccccc1", "Measurement target": "HCT-116", "Observed measurement": "2.48 µM (inactive)"}
{"Compound": "Cc1c(OCCCOc2ccc3c(=O)cc(-c4ccccc4)oc3c2C)ccc2c(=O)cc(-c3ccccc3)oc12", "Measurement target": "HCT-116", "Observed measurement": "> 100 µM (inactive)"}
{"Compound": "CCCCCC(/C=N/NC(N)=S)C(O)(C(F)(F)F)C(F)(F)F (stereo unspecified)", "Measurement target": "HCT-116", "Observed measurement": "> 10 µM (inactive)"}
{"Compound": "CC(C)(C)c1cc2c(O)c(c1)Cc1cc(C(C)(C)C)cc(c1O)Cc1cc(C(C)(C)C)cc(c1O)Cc1cc(C(C)(C)C)cc(c1O)Cc1cc(C(C)(C)C)cc(c1O)Cc1cc(C(C)(C)C)cc(c1O)Cc1cc(C(C)(C)C)cc(c1O)Cc1cc(C(C)(C)C)cc(c1O)C2", "Measurement target": "HCT-116", "Observed measurement": "> 50 µM (inactive)"}
{"Compound": "CCN(CC)COC(=S)S", "Measurement target": "HCT-116", "Observed measurement": "40.4 µM (inactive)"}
{"Compound": "C[n+]1cn(CC(=O)c2ccccc2)c(C(N)=O)c1N", "Measurement target": "HCT-116", "Observed measurement": "24.2 µM (inactive)"}
{"Compound": "CC(C)=CC(=O)c1[nH]c2ccccc2c1CC(=O)NCCc1c[nH]cn1", "Measurement target": "HCT-116", "Observed measurement": "> 100 µM (inactive)"}
{"Compound": "Nc1ncc2c(n1)-c1ccccc1OC2NC1CC1 (stereo unspecified)", "Measurement target": "HCT-116", "Observed measurement": "> 100 µM (inactive)"}
{"Compound": "CC(=O)c1ccc2c(c1)CC1(C2)Cc2ccccc2C1=O (stereo unspecified)", "Measurement target": "HCT-116", "Observed measurement": "44.1 µM (inactive)"}
{"Compound": "CC(=O)N1C(Nc2ccccc2)CCN1c1ccccc1 (stereo unspecified)", "Measurement target": "HCT-116", "Observed measurement": "> 10 µM (inactive)"}
{"Compound": "CCOC(=O)C1=C(Nc2ccc(Cl)cc2Cl)OCC1=O", "Measurement target": "HCT-116", "Observed measurement": "> 100 µM (inactive)"}
{"Compound": "COc1ccc(CCCCNCc2cccc(CNCCCCc3ccc(OC)cc3)c2)cc1", "Measurement target": "HCT-116", "Observed measurement": "1.94 µM (inactive)"}
{"Compound": "O/N=C1\\C(=C\\c2ccc3c(c2)OCCO3)CCCC1C(NO)c1ccc2c(c1)OCCO2 (stereo unspecified)", "Measurement target": "HCT-116", "Observed measurement": "18.7 µM (inactive)"}
{"Compound": "COc1ccccc1OCC(COC(=O)Nc1ccccc1)OC(=O)Nc1ccccc1 (stereo unspecified)", "Measurement target": "HCT-116", "Observed measurement": "61.1 µM (inactive)"}
{"Compound": "Oc1ccc2c(c1)OCC(O)(c1ccccc1O)C2 (stereo unspecified)", "Measurement target": "HCT-116", "Observed measurement": "> 100 µM (inactive)"}
{"Compound": "O=C1Nc2cccc3ncn(c23)C2=C1CCCC2", "Measurement target": "HCT-116", "Observed measurement": "> 100 µM (inactive)"}
{"Compound": "CC(=O)Nc1ccc(Nc2cc(=O)n(C)c(=O)[nH]2)cc1", "Measurement target": "HCT-116", "Observed measurement": "> 100 µM (inactive)"}
{"Compound": "O=C(O)c1ccccc1C1c2ccccc2Oc2ccccc21", "Measurement target": "HCT-116", "Observed measurement": "45.3 µM (inactive)"}
{"Compound": "O=C1C2=C(C3=NCCc4c[nH]c1c43)c1c(cc(Br)c(O)c1Br)CCN2", "Measurement target": "HCT-116", "Observed measurement": "14.5 µM (inactive)"}
{"Compound": "Cc1ccc(N2CCc3c(C)c(C#N)c4nc5ccccc5n4c32)cc1", "Measurement target": "HCT-116", "Observed measurement": "> 100 µM (inactive)"}
{"Compound": "CCOC(=O)c1ccc(N(CCOS(C)(=O)=O)CCOS(C)(=O)=O)cc1", "Measurement target": "HCT-116", "Observed measurement": "30.1 µM (inactive)"}
{"Compound": "CN(N=O)C(=O)NC(CCCCNC(=O)OCc1ccccc1)C(=O)OCc1ccccc1 (stereo unspecified)", "Measurement target": "HCT-116", "Observed measurement": "56.8 µM (inactive)"}
{"Compound": "CC(C)c1ccc(/C=C/c2cc(C(=O)NNC(=O)NC3CCCCC3)nc(S)n2)cc1", "Measurement target": "HCT-116", "Observed measurement": "> 100 µM (inactive)"}
{"Compound": "COP(=O)(/C=C/C(NC(=O)C(Cl)(Cl)Cl)c1ccccc1)OC (stereo unspecified)", "Measurement target": "HCT-116", "Observed measurement": "> 100 µM (inactive)"}
{"Compound": "NC12CC3C4CC5(N)CC3C(C1)C(C5)C4C2", "Measurement target": "HCT-116", "Observed measurement": "> 100 µM (inactive)"}
{"Compound": "CC1=NCCc2cc3[nH]c4ccccc4c3cc21", "Measurement target": "HCT-116", "Observed measurement": "12.8 µM (inactive)"}
{"Compound": "COc1cccc(-c2nc(O)c3ccccc3n2)c1OC", "Measurement target": "HCT-116", "Observed measurement": "> 100 µM (inactive)"}
